# assay name: Inhibition of [3H]-FPP incorporation into biotin-linked K-ras decapeptide (CVIM) by bovine farnesyltransferase
# Parameters: species or system Bos taurus
readout type: IC50 (nM)
Output spec: scalar in nM, unitless text.

Query string: Request the reported IC50 associated with Cn1cncc1C(OCc1cn(Cc2ccc(C#N)cc2)c(=O)cc1-c1cccc(Cl)c1)c1ccc(C#N)cc1 (stereo unspecified)
Result string: 5

---

Kindly state pIC50 for each of the entries shown.
# assayed target: Geranylgeranyl transferase type I (Bos taurus, UniProt P29702+Q5EAD5)
# assay name: inhibitory concentration needed to reduce the bovine GGTase-catalyzed incorporation of […] into a biotin-linked K-ras (B) decapeptide
# Assay type: protein-complex assay
pIC50: −log10 of the molar value.

Query string: Please tell me: pIC50 of Cn1cncc1C(OCc1cn(CC#N)c(=O)cc1-c1cccc(Cl)c1)c1ccc(C#N)cc1 (stereo not drawn) , system Geranylgeranyl transferase type I (Bos taurus, UniProt P29702+Q5EAD5)?
Result string: < 5.00

Query string: Give recorded pIC50 with Geranylgeranyl transferase type I (Bos taurus, UniProt P29702+Q5EAD5) for the following compound: Cn1cncc1C(OCc1cn(C)c(=O)cc1-c1cccc(Cl)c1)c1ccc(C#N)cc1 (stereo not drawn)
Result string: < 5.00

Query string: // map Cn1cncc1C(OCc1c(-c2cccc(Cl)c2)cc(C#N)n(C)c1=O)c1ccc(C#N)cc1 (stereo not drawn) to recorded pIC50 (system: Geranylgeranyl transferase type I (Bos taurus, UniProt P29702+Q5EAD5))
Result string: < 5.00
